- Test system: Plasmodium berghei
- experiment description: Luciferase/luciferin-expressing antifolate-resistant parasites were used to infect a culture of HepG2 cells that were pre-incubated with compounds. Infected hepatocytes emit light due to the luciferase reaction. Assay results are presented as the percent inhibition of light emission compared to control. […]
- Type: functional
- particulars: sporozoite, HEPG2TOX_HILL_SLOPE 1.14, HEPG2TOX_R_SQUARED 0.869, PBLUC_HILL_SLOPE 2.93, PBLUC_R_SQUARED 0.682, read-out: LUCIFERASE INFECTION ASSAY - IC50
readout type: IC50 (nM)
Dear colleague, please return just the value in nM, with no unit written.

INPUT: Which measured IC50 value corresponds to `O=C(Nc1nc2ccccn2c1C(=O)NC1CCCCC1)c1cc(F)ccc1F` ?
OUTPUT: 1000

----------
- Tested on: Plasmodium berghei
- experiment description: Luciferase/luciferin-expressing antifolate-resistant parasites were used to infect a culture of HepG2 cells that were pre-incubated with compounds. Infected hepatocytes emit light due to the luciferase reaction. Assay results are presented as the percent inhibition of light emission compared to control. […]
- Type: functional
- particulars: sporozoite, HEPG2TOX_HILL_SLOPE 2.54, HEPG2TOX_R_SQUARED 0.907, PBLUC_HILL_SLOPE 2.4, PBLUC_R_SQUARED 0.3, read-out: LUCIFERASE INFECTION ASSAY - IC50
readout type: IC50 (nM)
Value expressed in nM; do not type the unit.

INPUT: Given the molecule CC(Oc1ccc(Oc2ccc(C(F)(F)F)cc2)cc1)C(=O)N1CCN(c2ccc(C(F)(F)F)cn2)CC1 (stereo unspecified) , what is its reported IC50?
OUTPUT: 3000

----------
- Test system: Plasmodium berghei
- experiment description: Luciferase/luciferin-expressing antifolate-resistant parasites were used to infect a culture of HepG2 cells that were pre-incubated with compounds. Infected hepatocytes emit light due to the luciferase reaction. Assay results are presented as the percent inhibition of light emission compared to control. […]
- Format: functional
- particulars: sporozoite, PBLUC_HILL_SLOPE 1.92, PBLUC_R_SQUARED 0.18, read-out: LUCIFERASE INFECTION ASSAY - IC50
readout type: IC50
Please state the number and follow it with the unit.

INPUT: Sample `c1ccc(Oc2cccc(-c3ccc4nnc(-c5ccc6c(c5)OCO6)n4c3)c2)cc1` — what was its IC50?
OUTPUT: 8.29 µM

----------
- Test system: Plasmodium berghei
- experiment description: Luciferase/luciferin-expressing antifolate-resistant parasites were used to infect a culture of HepG2 cells that were pre-incubated with compounds. Infected hepatocytes emit light due to the luciferase reaction. Assay results are presented as the percent inhibition of light emission compared to control. […]
- Type: functional
- particulars: sporozoite, PBLUC_HILL_SLOPE 18.7, PBLUC_R_SQUARED 0.82, read-out: LUCIFERASE INFECTION ASSAY - IC50
readout type: IC50 (µM)
Report as a plain number; the unit µM is understood.

INPUT: Entry under review: `CCOc1cccc(-c2cn3c(-c4ccc(C(=O)N5CCN(C)CC5)cc4)cnc3cn2)c1` . Reported IC50?
OUTPUT: 6.48

----------
- Tested on: Plasmodium berghei
- experiment description: Luciferase/luciferin-expressing antifolate-resistant parasites were used to infect a culture of HepG2 cells that were pre-incubated with compounds. Infected hepatocytes emit light due to the luciferase reaction. Assay results are presented as the percent inhibition of light emission compared to control. […]
- Type: functional
- particulars: sporozoite, FFLUC_HILL_SLOPE 2.74, FFLUC_R_SQUARED 0.354, PBLUC_HILL_SLOPE 5.72, PBLUC_R_SQUARED 0.824, read-out: LUCIFERASE INFECTION ASSAY - IC50
readout type: pIC50
Remember, pIC50 is on a log scale: it is -log10 of the molar concentration.

INPUT: Give the measured pIC50 of `O=C1Nc2ccc(Cl)cc2/C1=C/c1ccc(-c2ccccc2)cc1` .
OUTPUT: 5.07
